assay: MT4 cytotoxicity in mock-infected cells (MTT)
Type: cell-based
experimental-conditions: human, mock-infected MT-4 cells
recorded-endpoint: CC50 (µM)
Numbers only, in µM.

Study these solved cases before continuing.
1. CCCC(C(=O)O)c1c(C)nc2c3ccccc3nn2c1-c1ccc(C)cc1 (centres unmarked); 200
2. CCCC(C(=O)O)c1c(C)nc2cc3c(cc2c1-c1ccc(C)cc1)CCC3 (centres unmarked); 82
3. CCCC(C(=O)O)c1c(C)nc2cc3c(cc2c1-c1ccc(C)cc1)CCCC3 (centres unmarked); 92
4. CCCC(C(=O)O)c1c(C)nc2ccc3c(c2c1-c1ccc(C)cc1)CCCC3 (centres unmarked); 92

// next entry
Query: Looking for the measured CC50 of CCCC(C(=O)O)c1c(C)nc2ccc3c(c2c1-c1ccc(C)cc1)CCC3 (centres unmarked) , can you help?
Reply: 114

====

assay: in vitro
Type: cell-based
experimental-conditions: human
recorded-endpoint: CC50 at 3 days

1) CCCC(C(=O)O)c1c(C)nc2cc3c(cc2c1-c1ccc(C)cc1)CCC3 (centres unmarked) [Cpd012]; > 20 µM

Moving on to the next compound.
Query: Which CC50 at 3 days reading was recorded for the compound Cc1ccc(-c2c(C(OC(C)(C)C)C(=O)O)c(C)nc3cc4c(cc23)CCCC4)cc1 (centres unmarked) [Cpd002] ?
Reply: > 10 µM
